# Test system: MS2 coat protein
# Protocol summary: apparent Kd, MS2 coat protein; higher = weaker binding; RNA-MaP array; FMN 200 µM where present
# Condition context: ligand present: flavin mononucleotide; designed as: OFF switch for flavin mononucleotide
Binning scheme for apparent Kd: lower level = under 20 nM, middle level = from 20 nM up to 100 nM, upper level = 100 nM and over

Examples with answers:
>>> assigned_category("AAUCCACAUGAGGAUCACCCAUGUCAGGAUAUCGCGCGCGCGUUUUCGGUCUUGCGCGCGAGAAGGGACGGCUG")
"middle level"
>>> assigned_category("UAUGCCUUUGUGAGGAUAUACUUUGUUUGGUCGUAGUAGAAGGCACAUGAGGAUCACCCAUGUAGAUUUUUGGU")
"middle level"
>>> assigned_category("AAAUAAAGCAGUGUAUUAAGAUAACAUGAGGAUCACCCAUGUAGAAGGCUCGAGCAAAAUGCUCGAGAGGAUAUACAACACUGC")
"lower level"
>>> assigned_category("UAUGUGUCAGGAUAUUAAUUAUUGGAGAAUGUGACGAUGAUUAAGAAGGGACAUGAGGAUCACCCAUGUUCAUC")
"middle level"
>>> assigned_category("GCGUACUGAGGAUAUACAUGAGGAUCACCCAUGUGACACAGCGUUUAGUGAUGAAUUUGUAGAAGGCAGUAGGC")
"upper level"

Consider the record given below.
[ask] Could you place `AUCAGCUCGUCAGGAUAUACGUCACUGCUUCGGCAGUGUAUUAAGAUCACAUGAGGAUCACCCAUGUAGAAGGGACGAGCUGAU` in its proper category? Many thanks.
[reply] upper level

----------
# Tested on: MS2 coat protein
# Protocol summary: apparent Kd, MS2 coat protein; higher = weaker binding; RNA-MaP array
# Condition context: designed as: OFF switch for flavin mononucleotide; no ligand
Attribute measured: apparent Kd (nM)
Field: numeric (nM). Do not append units.

Please review the entries below; each comes with its answer.
>>> result_number("UGUUUUAAAGAGGAUAUGACAACGGUUCCACCGUCAGAAGGCUUUACAUGAGGAUCACCCAUGUACUGGAGUGA")
17.3
>>> result_number("AACGGUUUUUAGAAGGGCGUCAGGGACCUUGGACAUGAGGAUCACCCAUGUGUGCAGACACCUGCGCAGGAUAUAAGUUCUCUA")
12.6
>>> result_number("UACAAAGAAUAGGAUAUCGAGAGGUAAUUUGGGCGAGAAGGAUUCACAUGAGGAUCACCCAUGUAGGCGGAUCU")
30.7
>>> result_number("CACGAUACUACAGGAUAUGCCGGUUACCAAUCUGCAGAAGGGUAGAUUAGUCUAACAUGAGGAUCACCCAUGUACCUCUCAUGU")
208
>>> result_number("GCUGUAAAGGAGAAGGUGAAUCGUAAGCUUGGUCAAGGAUAUCCGACUGGACAUGGCUGCAGACAUGAGGAUCACCCAUGUGCG")
237

[ask] What reported apparent Kd corresponds to `ACUGAGUAAGGAUAUCCAUCAUACUAACGACGCGGAAAGAAGGAGAAGGUACAUGAGGAUCACCCAUGUGAAAA` on MS2 coat protein?
[reply] 12.3

[ask] Give the reported apparent Kd for `AUCAUGUAAGGAUAUGCCGAACCUGUUUUGUCGCGGUUAAAGCAGAAGGUACAUGAGGAUCACCCAUGUUAAAU` (system: MS2 coat protein).
[reply] 56.2

----------
# Test system: MS2 coat protein
# Protocol summary: apparent Kd, MS2 coat protein; higher = weaker binding; RNA-MaP array
# Condition context: ligand present: tryptophan; designed as: OFF switch for tryptophan
Attribute measured: apparent Kd (µM)
The response must be a number in µM with no trailing unit.

Record excerpt, results attached:
>>> result_number("GUGAAGUUAGUGAGCGUUAGUCAAGCCAAACGAGGACCGGUACGGCCGCCACUCGCGCAUCGACAUGAGGAUCACCCAUGUGCCG")
0.0177
>>> result_number("GGCCAGGCAGCGGCCGCCACUUAGUGGGCCGAAUGUCCUUUGCUGAACAUGAGGAUCACCCAUGUAAGGACCGGGCUGUUCCGCA")
0.0695
>>> result_number("CGAUGCGCAUUAUCCCACUGGUAUGAGUCUCGAGGACCGGUACGGCCGCCACUCGCUACCGUACAUGAGGAUCACCCAUGUAUUA")
0.0459

[ask] Recorded apparent Kd for `CCCGUAAAGGCGGCCGCCACUGUAUGACAUGAGGAUCACCCAUGUAGGGAAAAUGCGAUGGUCGUCAGGACCGGGCCUCUGGCAU` , please?
[reply] 0.0238

----------
# System: MS2 coat protein
# Protocol summary: apparent Kd, MS2 coat protein; higher = weaker binding; RNA-MaP array; FMN 200 µM where present
# Condition context: ligand present: flavin mononucleotide; designed as: ON switch for flavin mononucleotide
Recorded apparent Kd values for a group of sequences are listed next.
Hi, when you answer, please include the unit after the number. Thanks!

Previously resolved entries follow.
>>> result("UUUUUUUUUAGAGGAUAUAUUGUGUGUUAUAUAAUAGAAGGCUAAACAUGUGACAUACACAUGAGGAUCACCCAUGUUUUGUUU")
"27 nM"
>>> result("AAAAAAAAUGUGUAGGAUAUCAGUAAAAAUACAUGAGGAUCACCCAUGUUCAAAAAAAAAAAAACUGAGAAGGACACGGGAAGUCC")
"30.3 nM"
>>> result("GGGUACUUCGGAGGAUAUCAUGUAAAUACAUGAGGAUCACCCAUGUCGAUGGAGACAUCGGAGAUUGAGAAGGCCGAUGUACCG")
"9.34 nM"
>>> result("CGACACCAGACAGGAUAUGCUGGACUUUGUCCAGCAGAAGGGUCUAAACAUGAGGAUCACCCAUGUAUGGUGUCGAAAUUUAAU")
"8.06 nM"
>>> result("CUUAUUAAACAAGGAUAUCAUUUGUGUACAAGUUUUACAUGAGGAUCACCCAUGUUAAAUGGUUUUGAGAAGGUGUUUAGAACU")
"31.5 nM"

[ask] Provide the documented apparent Kd with MS2 coat protein as the system for `GUAGCAUACCGAGGAUAUUCAGGGCGUGGAUAUACAUGAGGAUCACCCAUGUGGCGGAAGCCUAGGGAGAAGGCGGGCUGCUUC`
[reply] 19.9 nM

[ask] Query the reported apparent Kd for MS2 coat protein; item: `GUGCUCGUGUAAGGAUAUGCAGCCGUUUCGGCUGCAGAAGGUACUAUAAUACAUGAGGAUCACCCAUGUCUCUAUUGUUUGGUG`
[reply] 153 nM

[ask] // map `AAACACGGACAUGAGGAUCACCCAUGUGGCGAAAGCCUUGGGAGAAGGCCGUAUGCAAAGCAUACGGAGGAUAUUCAUACCGUG` to recorded apparent Kd (system: MS2 coat protein)
[reply] 67.9 nM

[ask] Return apparent Kd measured with MS2 coat protein given this sequence: `AAAUGGAACUAAGGAUAUCUGUAUUUUGUUGAAACAUGAGGAUCACCCAUGUUCAUGAAAUUAUAGGAGAAGGUAGAUCCAUAA`
[reply] 4.6 nM

[ask] // lookup apparent Kd | system=MS2 coat protein | key= `CCGAUGAUAGGACAGGAUAUGACUGUCGUCACAUGAGGAUCACCCAUGUCCCGGCAAUGCCACCGUUAGAAGGGUCCUAUCUCGG`
[reply] 13 nM

[ask] # get_value(readout= apparent Kd, system= MS2 coat protein) for `GAGUUUACGUUUGACACUUAGCGAGAGGAUAUGGAAAACAAGACAUGAGGAUCACCCAUGUACUAUCAGAAGGCUCGAGUACGA`
[reply] 5.69 nM

[ask] Param readout = apparent Kd; param system = MS2 coat protein; param query = `GCCAUCGCAUGAGGAUAUGGACAGCUUUGCUGUCCAGAAGGCAUGUCAAUAGACAUGAGGAUCACCCAUGUAGUUAAGAUGGCA` ; response: value
[reply] 52.2 nM

----------
# System: MS2 coat protein
# Protocol summary: apparent Kd, MS2 coat protein; higher = weaker binding; RNA-MaP array; FMN 200 µM where present
# Condition context: ligand present: flavin mononucleotide; designed as: OFF switch for flavin mononucleotide
Attribute measured: apparent Kd

Below, each entry is followed by its recorded apparent Kd result.
>>> result("UGCAUGUUAGGAUAUGUUGUUGCGGGCGUACGCUCUCGACCACAGAAGGAACAUGAGGAUCACCCAUGUACCUC")
"0.0888 µM"
>>> result("GCGUUAGUAUCACAUGUAUUACAUGAGGAUCACCCAUGUUACUAGGAUAUGUAUUAGAAUUAUCAACAGAAGGAGUAAUAACGC")
"0.0203 µM"
>>> result("ACAUGAUACUAGGAUAUCAGCAUACUUCAAUGUUGAGAAGGAGUAACAUGAGGAUCACCCAUGUAUCCAACAUG")
"0.219 µM"
>>> result("CAGUCUACAGGAUAUACAUGAGGAUCACCCAUGUUUAUCAACUUUCAGUAAUCCAUAUGUAGAAGGGUAGACUG")
"0.0791 µM"

[ask] Endpoint output: apparent Kd of `AAUAUAGAGCUGGAAUAAAACAUCACAUGAGGAUCACCCAUGUAGGAUAUCAGCACGAUAAGUGCUGAGAAGGACAUCCAGCUC` . Value?
[reply] 0.0141 µM

[ask] Field request: apparent Kd | item: `UAUAUAAUUAAGAGCUGGUCCAAAACAUGAGGAUCACCCAUGUAGGAUAUCAGCACGAUAAGUGCUGAGAAGGACAUCCAGCUC`
[reply] 0.0164 µM

[ask] Look up apparent Kd for this sequence: `AUUAUUGGCUAAGGAUAUGGAUACAUGAGGAUCACCCAUGUAUAAUUUGUGAUCAUAUAAAUGAUCCAGAAGGUAGCUGUUUAU`
[reply] 0.22 µM

Data provenance: the EternaBench riboswitch data
